Test system: HAL-01 (B-Lymphoblastic Leukemia);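 also: after 72 h of two-drug dosing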
Assay: Bliss excess, mean over the matrix (fraction); higher = more synergy
# reported Bliss excess; entries follow
Just the number, please.

The examples below pair each entry with its known result.
Exercise: Form field: reported Bliss excess of COc1cccc(OCCCN)c1-c1cc(Nc2cnc(C#N)cn2)n[nH]1 [Prexasertib] + CCc1c2c(nc3ccc(O)cc13)-c1cc3c(c(=O)n1C2)COC(=O)[C@]3(O)CC [SN-38] (first compound max 1 µM, 7x7, partner max 0.3 µM)
Key: -0.0262

Exercise: Form field: reported Bliss excess of C=CCn1c(=O)c2cnc(Nc3ccc(N4CCN(C)CC4)cc3)nc2n1-c1cccc(C(C)(C)O)n1 [AZD1775] + O=C(c1cc(Cc2n[nH]c(=O)c3ccccc23)ccc1F)N1CCN(C(=O)C2CC2)CC1 [Olaparib] (first compound max 1 µM, partner max 10 µM)
Key: -0.0542

Exercise: Form field: reported Bliss excess of O=C(c1cc(Cc2n[nH]c(=O)c3ccccc23)ccc1F)N1CCN(C(=O)C2CC2)CC1 [Olaparib] + CC1(C)CCC(CN2CCN(c3ccc(C(=O)NS(=O)(=O)c4ccc(NCC5CCOCC5)c([N+](=O)[O-])c4)c(Oc4cnc5[nH]ccc5c4)c3)CC2)=C(c2ccc(Cl)cc2)C1 [Venetoclax] (first compound max 10 µM, 7x7, partner max 1 µM)
Key: 0.122

New cases:
Exercise: Form field: reported Bliss excess of CC1(C)CCC(CN2CCN(c3ccc(C(=O)NS(=O)(=O)c4ccc(NCC5CCOCC5)c([N+](=O)[O-])c4)c(Oc4cnc5[nH]ccc5c4)c3)CC2)=C(c2ccc(Cl)cc2)C1 [Venetoclax] + COc1cc(Nc2ncc3c(n2)-c2ccc(Cl)cc2C(c2c(F)cccc2OC)=NC3)ccc1C(=O)O [Alisertib] (first compound max 1 µM, 7x7, partner max 10 µM)
Key: 0.121
